# protocol.text: in vitro
# experimental.conditions: mouse, microsomes
measured.attribute: half-life (min)
Number in min, nothing else.

Briefly, half-life measured for O=C1CC(=O)N(CCc2ccccc2)C(=O)N1CCc1ccccc1 [Compound 1] : 16

====

# Test system: PC12-G93A-YFP cell line
# protocol.text: cytotoxicity protection assay against mutant SOD1-induced cytotoxicity
# Type: cell-based
# experimental.conditions: read-out: Potency (EC50)
measured.attribute: pEC50
In simple prose, pEC50 is minus the logarithm base ten of a concentration in moles per litre.

Briefly, pEC50 measured for O=C1CC(=O)N(CCc2ccccc2)C(=O)N1CCc1ccccc1 : 5.77

====

# protocol.text: in vitro
# experimental.conditions: plasma
measured.attribute: half-life (h)
Number in h, nothing else.

Briefly, half-life measured for O=C1CC(=O)N(CCc2ccccc2)C(=O)N1CCc1ccccc1 [Compound 1] : 1.06
